Could you please report measured DAR for the items listed next?
experiment.summary: Stability (placement) test of ADCs at 40° C. in dark for 14 days, DAR and polymer content
Type: physicochemical
recorded.conditions: Day 0, 40° C. in dark
*1 amine or outer side, *2 acyl side, *3 side chain or, on linkers, in order; H or OH if unused. Where a SMILES comes first, the peptide text is derived from it. [ ]: non-standard residue; d: D form. The star is where a group is joined. Exatecan = CC[C@@]1(O)C(=O)OCc2c1cc1n(c2=O)Cc2c-1nc1cc(F)c(C)c3c1c2[C@@H](N*)CC3; Propanoyl(3-maleimido) = O=C1C=CC(=O)N1CCC(=O)*; X1 = O=C(CN1CCOCCN([*:1])CCOCC1)[*:2]; NHCH2OCH2CO = O=C(COCN[*:1])[*:2]
Answers are plain numbers.

Worked cases, DAR given:
| molecule | readout.number |
| --- | --- |
| CCc1c2c(nc3ccc(O)cc13)-c1cc3c(c(=O)n1C2)COC(=O)[C@@]3(CC)OC(=O)N(C)CCN(C)C(=O)COCNC(=O)[C@H](CC(N)=O)NC(=O)[C@H](C)NC(=O)[C@H](C)NC(=O)CN1CCOCCN(C(=O)CCN2C(=O)C=CC2=O)CCOCC1 [Example 83] | 3.96 |
| CCc1c2c(nc3ccc(O)cc13)-c1cc3c(c(=O)n1C2)CCC(=O)[C@@]3(CC)OC(=O)N(C)CCN(C)C(=O)COCNC(=O)CNC(=O)[C@H](Cc1ccccc1)NC(=O)CNC(=O)CNC(=O)CN1CCOCCN(C(=O)CCN2C(=O)C=CC2=O)CCOCC1 [Example 23] | 4.12 |

Please examine the following record next.
-- ask Given the molecule CC[C@@]1(O)C(=O)OCc2c1cc1n(c2=O)Cc2c-1nc1cc(F)c(C)c3c1c2[C@@H](NC(=O)COCNC(=O)CNC(=O)[C@H](Cc1ccccc1)NC(=O)CNC(=O)CNC(=O)CN1CCOCCN(C(=O)CCN2C(=O)C=CC2=O)CCOCC1)CC3 [Example 22] ({Propanoyl(3-maleimido)}-[X1]GGFG[NHCH2OCH2CO]-Exatecan) , what is its reported DAR?
-- reply 4.14

###

experiment.summary: Stability (placement) test of ADCs at 40° C. in dark for 14 days, DAR and polymer content
Assay type: physicochemical
recorded.conditions: Day 14, 40° C. in dark
Description: Polymers (high molecular components) of the antibody-drug conjugates were tested using molecular exclusion high-performance liquid chromatography (SE-HPLC). A Biocore SEC chromatographic column (7.8×300 mm, […]) was used, and the mobile phase was 50 mM phosphate containing 300 mM sodium chloride (pH 6.8), with a flow rate of 0.5 mL/min. Samples of […] and 10 μl were injected. […] The polymer content of an antibody-drug conjugate was calculated using an area normalization method. […]
*1 amine or outer side, *2 acyl side, *3 side chain or, on linkers, in order; H or OH if unused. Where a SMILES comes first, the peptide text is derived from it. [ ]: non-standard residue; d: D form. The star is where a group is joined. MaleimidoPEG4propanoyl = O=C1C=CC(=O)N1CCOCCOCCOCCOCCC(=O)*; X2 = CO[C@@H]([C@H]1CCCN1[*:1])[C@@H](C)C(=O)[*:2]; Dil = CC[C@H](C)[C@H](NC)[C@@H](CC(=O)O)OC; X1 = O=C(CN1CCOCCN([*:1])CCOCC1)[*:2]; PABC = O=C(OCc1ccc(N[*:1])cc1)[*:2]; X3 = C[C@@H](N*)[C@@H](O)c1ccccc1; NMeV = CN[C@H](C(=O)O)C(C)C
I'd be grateful if you could share measured DAR for these entries.
One number for each entry.

| molecule | readout.number |
| --- | --- |
| C=C1C[C@@H]2CC[C@@]34C[C@H]5OC6C(O[C@H]7CC[C@H](CC(=O)C[C@@H]8[C@@H](OC)[C@@H](C[C@H](O)CNC(=O)CNC(=O)[C@H](Cc9ccccc9)NC(=O)CNC(=O)CNC(=O)CN9CCOCCN(C(=O)CCN%10C(=O)C=CC%10=O)CCOCC9)O[C@H]8C[C@H]8O[C@@H](CC[C@@H]1O2)C[C@@H](C)C8=C)O[C@@H]7[C@@H]6O3)[C@H]5O4 | 4.10 |

Field: DAR. Fill in for each record below.
1. C=C1C[C@@H]2CC[C@@]34C[C@H]5OC6C(C[C@H]7CC[C@H](CC(=O)C[C@@H]8[C@@H](OC)[C@@H](C[C@H](O)CNC(=O)CNC(=O)[C@H](Cc9ccccc9)NC(=O)CNC(=O)CNC(=O)CCC(=O)N9CCOCCN(C(=O)CCN%10C(=O)C=CC%10=O)CCOCC9)O[C@H]8C[C@H]8O[C@@H](CC[C@@H]1O2)C[C@@H](C)C8=C)O[C@@H]7[C@@H]6O3)[C@H]5O4
2. CC[C@H](C)[C@@H]([C@@H](CC(=O)N1CCC[C@@H]1[C@H](OC)[C@@H](C)C(=O)N[C@H](C)[C@@H](O)c1ccccc1)OC)N(C)C(=O)[C@@H](NC(=O)[C@H](C(C)C)N(C)C(=O)OCc1ccc(NC(=O)CNC(=O)[C@H](Cc2ccccc2)NC(=O)CNC(=O)CNC(=O)CN2CCOCCN(C(=O)CCOCCOCCOCCOCCN3C(=O)C=CC3=O)CCOCC2)cc1)C(C)C [Example 85] (MaleimidoPEG4propanoyl-[X1]GGFG[PABC][NMeV]V[Dil][X2]-X3)

-- reply
1. 3.96
2. 4.00
